- EXPERIMENT SUMMARY: Primary imaging screen for DUSP6 inhibitors that restore phospho-Erk in transfected HeLa cells, chemical complementation (AID 609)
- EXPERIMENTAL CONTEXT: HeLa MKP-3 transfected, phospho-Erk imaging KS statistic; measured here: nuclear c-Myc green intensity z-score; at 10 µM
z-score overview

Answered cases to consult:
Entry CCN(CC)c1ccc(N=Cc2c(O)n(-c3ccccc3C)c(=O)[nH]c2=O)cc1 — recorded z-score = 0.959

Entry Cn1c(O)c(C(=O)c2ccccc2Cl)c(=O)n(C)c1=O — recorded z-score = 0.445

Entry CC1(C)CC(=O)C(C=NCCN2CCN(C(=O)Cc3ccc(F)cc3)CC2)=C(O)C1 — recorded z-score = 1.58

Entry Cc1ccc2c(c1)[C@@H]1CN(C)CC[C@@H]1N2C(=O)Nc1cccc(C(F)(F)F)c1 — recorded z-score = 0.568

Entry OC(c1ccc(F)cc1)C(c1ccccc1)N1CCOCC1 (stereo not drawn) — recorded z-score = 1.62

More entries:
Entry COc1cccc(-n2c(C)nc3ccccc3c2=O)c1 — recorded z-score = 1.04

Entry CCOCCN1CCC(OC(C)=O)C(C)C1 (stereo not drawn) — recorded z-score = -1.35

Entry CC[C@@H](CO)NC(=O)[C@@H]1C=C2c3cccc4c3c(cn4C)C[C@H]2N(C)C1 — recorded z-score = -0.624

Entry O=c1[nH]c(=O)n(-c2cccc(Cl)c2)c(O)c1C=NCCN1CCCCC1 — recorded z-score = 1.06

====

fluorescence slope overview
- SYSTEM TESTED: Muscarinic acetylcholine receptor M4 (Homo sapiens) (UniProt P08173)
- Sequence (P08173 whole entry, looked up): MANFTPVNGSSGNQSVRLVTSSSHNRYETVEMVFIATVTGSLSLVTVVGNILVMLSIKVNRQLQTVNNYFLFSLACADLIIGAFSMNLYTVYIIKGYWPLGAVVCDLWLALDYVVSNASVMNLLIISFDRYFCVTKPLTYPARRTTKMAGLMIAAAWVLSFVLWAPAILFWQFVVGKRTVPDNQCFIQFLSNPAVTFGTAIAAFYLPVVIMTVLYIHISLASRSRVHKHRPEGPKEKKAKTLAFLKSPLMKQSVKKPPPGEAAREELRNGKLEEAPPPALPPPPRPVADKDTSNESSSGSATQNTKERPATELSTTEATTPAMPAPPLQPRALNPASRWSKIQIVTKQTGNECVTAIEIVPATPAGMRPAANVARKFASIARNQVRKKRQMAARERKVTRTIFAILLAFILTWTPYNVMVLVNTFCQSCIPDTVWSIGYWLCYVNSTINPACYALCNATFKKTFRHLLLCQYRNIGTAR
- EXPERIMENT SUMMARY: M4-linked GIRK flux change, two-sided – cell-based, HEK293 M4/GIRK, thallium flux, BTC-AM, M4 allosteric agonist project, primary screen (AID 625);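 note: thallium influx through GIRK channels coupled to M4 in HEK293 cells with BTC-AM dye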
- EXPERIMENTAL CONTEXT: at 10 µM, actives lie on both sides
// return just the number, without any unit appended

Answered cases to consult:
Entry COc1ccc2c(c1OC)C(=O)OC2c1c(O)n(C2CCCCC2)c(=O)[nH]c1=O (stereo unspecified) — recorded fluorescence slope = 0.00555

Entry O=C(c1ccc2nc3ccc(Cl)cc3c(=O)n2c1)N1CCC2(CC1)OCCO2 — recorded fluorescence slope = 0.00414

Entry O=C(Cc1ccccc1)OC(COCc1ccccc1)CN1CCOCC1 (stereo unspecified) — recorded fluorescence slope = 0.00718

Entry O=C(C1CCCN(S(=O)(=O)c2cccc3nsnc23)C1)N1CCC2(CC1)OCCO2 (stereo unspecified) — recorded fluorescence slope = 0.00517

Entry Cn1c(O)c(C(=O)c2ccccc2Cl)c(=O)n(C)c1=O — recorded fluorescence slope = 0.00543

More entries:
Entry O=C(CN1CCN(Cc2cccc(Cl)c2)C1=O)N1CCC2(CC1)OCCO2 — recorded fluorescence slope = 0.00798

Entry CC(=O)CC(C)(C)n1c[n+](C)nn1 — recorded fluorescence slope = 0.00569

Entry O=C(c1ccco1)C12CN3CN(CN(C3)C1)C2 — recorded fluorescence slope = 0.00486

Entry COc1ccccc1OCCCn1cc(C(=O)c2ccco2)c2ccccc21 — recorded fluorescence slope = 0.00746

Entry CC(C)OC(=O)c1c(N)n(CC2CCCO2)c2nc3ccccc3nc12 (stereo unspecified) — recorded fluorescence slope = 0.00718

Entry CCN1CCN(c2ncnc3ccc(Br)cc23)CC1 — recorded fluorescence slope = 0.00395

====

- EXPERIMENT SUMMARY: inhibitors of TNFa-induced NFkB p65 translocation, primary screen, imaging, HUVEC, MLSMR starter and 10KST1 sets (AID 438);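 note: compound added about 3h40 before a 20 min TNFalpha stimulation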
- EXPERIMENTAL CONTEXT: HUVEC TNFa-induced p65 nuclear translocation; measured here: nuclei count (cytotoxicity indicator), at 2.08 µM
MEASURE: cell count

Answered cases to consult:
Entry CC(C)[C@@]1(NC(=O)[C@@H]2C=C3c4cccc5[nH]cc(c45)C[C@H]3N(C)C2)O[C@@]2(O)[C@@H]3CCCN3C(=O)[C@H](Cc3ccccc3)N2C1=O — recorded cell count = 584

Entry CCN1CCN(Cc2cc(Br)cc(OC)c2O)CC1 — recorded cell count = 579

Entry CCCCCCn1c(O)c(C=Nc2c(C)n(C)n(-c3ccccc3)c2=O)c(=O)[nH]c1=O — recorded cell count = 335

More entries:
Entry CCOc1ccc(Cc2c(O)[nH]c(=O)[nH]c2=O)cc1 — recorded cell count = 618

Entry CC(CCc1ccccc1)NC(C)C(O)c1ccc(O)cc1 (configuration not stated) — recorded cell count = 697

Entry O=c1[nH]c(=O)n(Cc2ccco2)c(O)c1C=NCCCn1ccnc1 — recorded cell count = 506

Entry CNC(=O)N(C)c1nnc(C(C)(C)C)s1 — recorded cell count = 642

====

- EXPERIMENT SUMMARY: inhibitors of TNFa-induced NFkB p65 translocation, primary screen, imaging, HUVEC, MLSMR starter and 10KST1 sets (AID 438);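 note: compound added about 3h40 before a 20 min TNFalpha stimulation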
- EXPERIMENTAL CONTEXT: HUVEC TNFa-induced p65 nuclear translocation; measured here: nuclei count (cytotoxicity indicator), at 2.08 µM
Mark yes (1) for reported cell count of 700 or greater; mark no (0) for anything smaller.

Q: hey, is cell count for this one >= 700? CCCCNC(=O)c1c(N)n(CCCOC)c2nc3ccccc3nc12
Result: no (0)

Q: hey, is cell count for this one >= 700? O=c1[nH]c(=O)n(Cc2ccc(F)cc2)c(O)c1C=NCCCN1CCOCC1
Result: yes (1)

Q: hey, is cell count for this one >= 700? CSc1ccc(C(=O)C(C)(C)N2CCOCC2)cc1
Result: no (0)

More entries:
Q: hey, is cell count for this one >= 700? CN1CCN(c2c[nH]c(=O)[nH]c2=O)CC1
Result: no (0)

Q: hey, is cell count for this one >= 700? CCOP(=S)(OCC)c1ccc(N(C)C)cc1
Result: no (0)

====

- SYSTEM TESTED: Voltage-gated potassium channel subunit beta-2 (Rattus norvegicus) (UniProt P62483)
- Sequence (P62483 whole entry, looked up): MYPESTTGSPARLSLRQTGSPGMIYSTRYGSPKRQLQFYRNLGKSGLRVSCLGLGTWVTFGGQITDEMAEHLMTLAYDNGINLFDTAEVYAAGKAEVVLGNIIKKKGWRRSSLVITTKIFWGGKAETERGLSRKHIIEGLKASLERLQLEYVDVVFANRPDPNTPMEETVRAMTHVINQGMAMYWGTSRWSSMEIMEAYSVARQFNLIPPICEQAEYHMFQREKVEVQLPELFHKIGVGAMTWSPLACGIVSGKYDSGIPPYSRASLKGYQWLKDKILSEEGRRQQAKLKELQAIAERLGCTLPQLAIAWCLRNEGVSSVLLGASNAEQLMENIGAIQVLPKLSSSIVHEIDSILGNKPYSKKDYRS
- EXPERIMENT SUMMARY: enhancers of rat Kvbeta2 NADPH turnover – biochemical, NADPH fluorescence, primary screen (AID 623);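 note: fluorescence intensity change per second fitted from 20 to 320 s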
- EXPERIMENTAL CONTEXT: Recombinant KvBeta, NADPH fluorescence decrease slope, 10 min; at 10 µM; stronger effect = lower value
Residues, ends and D or L forms follow the SMILES beside them.
NADPH fluorescence slope overview
// return just the number, without any unit appended

Answered cases to consult:
Entry COc1ccc(Cc2nccc3cc(OC)c(OC)cc23)cc1OC — recorded NADPH fluorescence slope = -7e-05

Entry C=CCn1c(O)c(C(C)=Nc2ccc(N(CC)CC)cc2)c(=O)[nH]c1=O — recorded NADPH fluorescence slope = 2.3e-05

Entry O=c1[nH]c(=O)n(CCc2ccc(F)cc2)c(O)c1C=NCCCn1ccnc1 — recorded NADPH fluorescence slope = -3.2e-05

Entry CN(C)c1cc(N)c2c(n1)CCC2 (tested in a mixture with another compound) — recorded NADPH fluorescence slope = -5.8e-05

Now consider a different compound.
Entry CC(C)C[C@H](NC(=O)[C@@H]1CCCN1C(=O)[C@@H](N)Cc1ccc(O)cc1)C(=O)NCC(N)=O (H-YPLG-NH2) — recorded NADPH fluorescence slope = -6.7e-05

====

inhibition overview
- EXPERIMENT SUMMARY: inhibitors of TNFa-induced NFkB p65 translocation, primary screen, imaging, HUVEC, MLSMR starter and 10KST1 sets (AID 438);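 note: compound added about 3h40 before a 20 min TNFalpha stimulation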;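 for inhibition: signal is the nuclear over cytoplasmic p65 intensity ratio per well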
- EXPERIMENTAL CONTEXT: HUVEC TNFa-induced p65 nuclear translocation; at 2 µM, stronger effect = higher value unless noted
The source made the active and inactive calls.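 How the source made its calls: active means inhibition above 20% together with a positive visual image hit; inconclusive means visual image hit but inhibition not above 20%; inactive means no visual image hit.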

Answered cases to consult:
Entry CC(=NCc1ccc2c(c1)OCO2)c1c(O)n(C)c(=O)n(C)c1=O — recorded inhibition = -10.8% (inactive)

Entry O=c1[nH]c(=O)n(Cc2ccco2)c(O)c1C=NCc1ccc2c(c1)OCO2 — recorded inhibition = -4.8% (inactive)

Entry C=CCC1(CN2CCCCCC2=O)C(=O)NC(=O)NC1=O — recorded inhibition = 4% (inactive)

Entry O=P(OCC(F)(F)C(F)F)(N1CCCCC1)N1CCCCC1 — recorded inhibition = -10.1% (inactive)

Entry Cn1c(O)c(C=NC2CCN(Cc3ccccc3)CC2)c(=O)n(C)c1=O — recorded inhibition = 1% (inactive)

More entries:
Entry CCC(COC(=O)c1cc(OC)c(OC)c(OC)c1)(c1ccccc1)N(C)C (stereo unspecified) — recorded inhibition = -6.3% (inactive)

Entry N#Cc1ccccc1Cn1cc(C(=O)c2ccco2)c2ccccc21 — recorded inhibition = 6% (inactive)

Entry CCOC(=O)[C@@]1(C#N)[C@@H]2C=CC(C(N)=O)=CN2[C@@H](C(N)=O)[C@@H]1c1cccc(Cl)c1 — recorded inhibition = -11.1% (inactive)

Entry CCOC(=O)c1cc(C)n(CCc2cnc[nH]2)c1C — recorded inhibition = 2.4% (inactive)

Entry c1ccc2c(c1)[nH]c1cnccc12 — recorded inhibition = -5.4% (inactive)

Entry c1ccc(C2NCc3ccccc3-n3cccc32)cc1 (stereo unspecified) — recorded inhibition = -11% (inactive)

Entry COc1ccc(CCn2c(O)c(C=NCc3cccnc3)c(=O)[nH]c2=O)cc1OC — recorded inhibition = -1.7% (inactive)
